molecular target: delta opioid receptor (DOR) (human) (UniProt P41143)
No end group written: not given here.
Catalogue of binders with associated Supplementary Table 4: EC50 of β-arrestin-1 recruitment to DOR, U87 cells
Property label: Supplementary Table 4: EC50 of β-arrestin-1 recruitment to DOR, U87 cells (µM)

[
  {
    "Binder": "YGGFMKRV-NH2 [adrenorphin-derived peptide YGGFMKRV]",
    "Qualifier symbol": "=",
    "Numeric result": 0.36
  },
  {
    "Binder": "YGGFMRAV-NH2 [adrenorphin-derived peptide YGGFMRAV]",
    "Qualifier symbol": "=",
    "Numeric result": 0.308
  },
  {
    "Binder": "YGGFMRRVC-NH2 (also: dimer of two chains) [adrenorphin-derived peptide (…)2]",
    "Qualifier symbol": "=",
    "Numeric result": 0.253
  },
  {
    "Binder": "YGSFMRRV-NH2 [adrenorphin-derived peptide YGSFMRRV]",
    "Qualifier symbol": ">",
    "Numeric result": 10
  },
  {
    "Binder": "YGGFLRRV-NH2 [adrenorphin-derived peptide YGGFLRRV]",
    "Qualifier symbol": "=",
    "Numeric result": 0.513
  },
  {
    "Binder": "YGGFMRRK-NH2 [adrenorphin-derived peptide YGGFMRRK]",
    "Qualifier symbol": "=",
    "Numeric result": 0.527
  },
  {
    "Binder": "YGGFMRRF-NH2 [adrenorphin-derived peptide YGGFMRRF]",
    "Qualifier symbol": "=",
    "Numeric result": 0.212
  },
  {
    "Binder": "YGGFFRRV-NH2 [adrenorphin-derived peptide YGGFFRRV]",
    "Qualifier symbol": "=",
    "Numeric result": 1.31
  }
]
